Listed below: EC50 values for each entry.
- Test system: endogenous target monocytes in human PBMC
- assay-procedure: PBMC ex vivo monocyte depletion flow cytometry assay (Example 200)
- Assay type: cell-based
- condition-summary: with anti-cotinine antibody (SEQ ID NO: 11/12), 18-24 hours, EC50 in molar, read-out: Ex Vivo Depletion Assay pEC50 (converted)
quantity: EC50 (nM)

[[record]]
compound_structure_string = "CC(C)N(C)[C@@H]1CC[C@H](N2CC[C@H](Nc3ncnc4ccc(C(F)(F)F)cc34)C2=O)[C@H](NC(=O)[C@H]2CC[C@H](NC(=O)CCOC[C@H]3CC[C@H](COCCNC(=O)[C@H]4CC(=O)N(C)[C@@H]4c4cccnc4)CC3)CC2)C1"
assay_system = "endogenous target monocytes in human PBMC"
u = "nM"
meas_value = 0.631

[[record]]
compound_structure_string = "CN1C(=O)C[C@H](C(=O)NCCOCCOCCOCCOCCOCCOCCC(=O)N[C@@H]2C[C@H](NC(C)(C)C)CC[C@@H]2N2CC[C@H](Nc3ncnc4ccc(C(F)(F)F)cc34)C2=O)[C@H]1c1cccnc1"
assay_system = "endogenous target monocytes in human PBMC"
u = "nM"
meas_value = 1.58

[[record]]
compound_structure_string = "CC(C)N(C)[C@@H]1CC[C@H](N2CC[C@H](Nc3ncnc4ccc(C(F)(F)F)cc34)C2=O)[C@H](NC(=O)CCCOC[C@H]2CC[C@H](COCCNC(=O)[C@H]3CC(=O)N(C)[C@@H]3c3cccnc3)CC2)C1"
assay_system = "endogenous target monocytes in human PBMC"
u = "nM"
meas_value = 7.94

[[record]]
compound_structure_string = "CC(C)N(C)[C@@H]1CC[C@H](N2CC[C@H](Nc3ncnc4ccc(C(F)(F)F)cc34)C2=O)[C@H](NC(=O)COCC(=O)N2CCN(C(=O)N3CCN(C(=O)COCCNC(=O)[C@H]4CC(=O)N(C)[C@@H]4c4cccnc4)CC3)CC2)C1"
assay_system = "endogenous target monocytes in human PBMC"
u = "nM"
meas_value = 1


====

Listed below: Emax at 10 µM values for each entry.
- assay-system: human alpha1 nicotinic acetylcholine (nACh) receptor (Homo sapiens)
- Sequence (P02708 21-457): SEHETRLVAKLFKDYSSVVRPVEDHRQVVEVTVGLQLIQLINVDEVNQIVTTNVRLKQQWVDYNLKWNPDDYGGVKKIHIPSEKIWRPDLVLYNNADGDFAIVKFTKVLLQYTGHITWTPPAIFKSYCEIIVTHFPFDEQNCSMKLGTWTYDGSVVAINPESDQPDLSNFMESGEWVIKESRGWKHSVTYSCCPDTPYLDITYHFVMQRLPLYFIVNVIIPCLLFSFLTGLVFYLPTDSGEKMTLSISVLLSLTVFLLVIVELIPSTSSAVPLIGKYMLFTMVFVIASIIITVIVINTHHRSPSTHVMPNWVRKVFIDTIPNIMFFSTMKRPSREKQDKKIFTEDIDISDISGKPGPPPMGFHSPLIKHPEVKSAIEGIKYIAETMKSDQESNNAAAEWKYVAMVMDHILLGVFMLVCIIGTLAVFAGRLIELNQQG
- Sequence (P11230 24-501 partner): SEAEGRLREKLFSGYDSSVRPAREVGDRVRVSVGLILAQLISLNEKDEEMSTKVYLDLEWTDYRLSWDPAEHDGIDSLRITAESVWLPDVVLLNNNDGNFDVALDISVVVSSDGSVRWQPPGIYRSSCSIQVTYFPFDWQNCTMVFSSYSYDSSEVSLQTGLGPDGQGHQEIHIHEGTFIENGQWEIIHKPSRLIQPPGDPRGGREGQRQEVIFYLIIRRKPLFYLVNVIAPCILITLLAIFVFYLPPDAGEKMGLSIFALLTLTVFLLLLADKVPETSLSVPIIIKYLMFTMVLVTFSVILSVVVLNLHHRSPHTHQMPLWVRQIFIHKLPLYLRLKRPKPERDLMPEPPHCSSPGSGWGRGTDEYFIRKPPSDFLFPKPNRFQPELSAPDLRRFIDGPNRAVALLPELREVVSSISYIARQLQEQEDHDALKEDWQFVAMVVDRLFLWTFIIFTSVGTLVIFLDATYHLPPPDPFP
- Sequence (Q07001 22-517 partner): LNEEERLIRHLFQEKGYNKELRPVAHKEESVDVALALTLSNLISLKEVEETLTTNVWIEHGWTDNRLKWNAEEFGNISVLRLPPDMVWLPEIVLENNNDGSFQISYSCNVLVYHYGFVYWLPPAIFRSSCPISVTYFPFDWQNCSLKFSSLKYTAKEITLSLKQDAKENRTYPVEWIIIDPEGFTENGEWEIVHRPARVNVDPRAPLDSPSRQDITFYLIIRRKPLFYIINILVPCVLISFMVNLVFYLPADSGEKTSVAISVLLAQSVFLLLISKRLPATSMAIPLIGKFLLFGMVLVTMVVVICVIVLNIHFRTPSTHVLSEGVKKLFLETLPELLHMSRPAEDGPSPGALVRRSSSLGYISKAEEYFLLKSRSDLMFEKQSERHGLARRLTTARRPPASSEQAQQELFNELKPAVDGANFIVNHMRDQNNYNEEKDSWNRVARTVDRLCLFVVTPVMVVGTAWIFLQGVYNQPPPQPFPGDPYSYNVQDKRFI
- assay-procedure: Nicotinic acetylcholine receptor antagonism assay, IONFlux automated patch clamp (Example 203)
- Format: cell-based
- condition-summary: maximum percentage antagonism at maximum concentration tested 10 μM; read-out: Maximum Response
quantity: Emax at 10 µM (%)

[[record]]
molecule = "CC(C)N(C)[C@@H]1CC[C@H](N2CC[C@H](Nc3ncnc4ccc(C(F)(F)F)cc34)C2=O)[C@H](NC(=O)c2ccc(C3CCN(CCOCCOCCNC(=O)[C@H]4CC(=O)N(C)[C@@H]4c4cccnc4)CC3)cn2)C1 [Example 94]"
assay_system = "human alpha1 nicotinic acetylcholine (nACh) receptor (Homo sapiens)"
meas_value = 67.1

[[record]]
molecule = "CC(C)N(C)[C@@H]1CC[C@H](N2CC[C@H](Nc3ncnc4ccc(C(F)(F)F)cc34)C2=O)[C@H](NC(=O)CCOCCOCCOCCOCCOCCNC(=O)[C@H]2CC(=O)N(C)[C@@H]2c2cccnc2)C1 [Example 40]"
assay_system = "human alpha1 nicotinic acetylcholine (nACh) receptor (Homo sapiens)"
meas_value = 24.7

[[record]]
molecule = "CC(C)N(C)[C@@H]1CC[C@H](N2CC[C@H](Nc3ncnc4ccc(C(F)(F)F)cc34)C2=O)[C@H](NC(=O)[C@H]2CC[C@H](c3ccc(C(=O)NCCOCCOCCNC(=O)[C@H]4CC(=O)N(C)[C@@H]4c4cccnc4)cc3)CC2)C1 [Example 140]"
assay_system = "human alpha1 nicotinic acetylcholine (nACh) receptor (Homo sapiens)"
meas_value = 18.2

[[record]]
molecule = "CC(C)N(C)[C@@H]1CC[C@H](N2CC[C@H](Nc3ncnc4ccc(C(F)(F)F)cc34)C2=O)[C@H](NC(=O)[C@H]2CC[C@@H](NC(=O)CCCOCCCCOCCNC(=O)[C@H]3CC(=O)N(C)[C@@H]3c3cccnc3)CC2)C1 [Example 122]"
assay_system = "human alpha1 nicotinic acetylcholine (nACh) receptor (Homo sapiens)"
meas_value = 23


====

- Test system: endogenous target monocytes in human PBMC
- assay-procedure: PBMC ex vivo monocyte depletion flow cytometry assay (Example 200)
- Type: cell-based
- condition-summary: with anti-cotinine antibody (SEQ ID NO: 11/12), 18-24 hours, EC50 in molar, read-out: Ex Vivo Depletion Assay pEC50 (converted)
quantity: EC50 (nM)

[[record]]
molecule = "CC(C)N(C)[C@@H]1CC[C@H](N2CC[C@H](Nc3ncnc4ccc(C(F)(F)F)cc34)C2=O)[C@H](NC(=O)CCOCCNC(=O)[C@H]2CC[C@@H](NC(=O)CCOCCNC(=O)[C@H]3CC(=O)N(C)[C@@H]3c3cccnc3)CC2)C1 [Example 110]"
u = "nM"
meas_value = 0.0501

[[record]]
molecule = "CC(C)N(C)[C@@H]1CC[C@H](N2CC[C@H](Nc3ncnc4ccc(C(F)(F)F)cc34)C2=O)[C@H](NC(=O)C2CCN(C3CCN(CCOCCOCCNC(=O)[C@H]4CC(=O)N(C)[C@@H]4c4cccnc4)CC3)CC2)C1 [Example 90]"
u = "nM"
meas_value = 1.58

[[record]]
molecule = "CC(C)N(C)[C@@H]1CC[C@H](N2CC[C@H](Nc3ncnc4ccc(C(F)(F)F)cc34)C2=O)[C@H](NC(=O)[C@H]2CC[C@@H](NC(=O)COCCOCCNC(=O)CCNC(=O)[C@H]3CC(=O)N(C)[C@@H]3c3cccnc3)CC2)C1 [Example 82]"
u = "nM"
meas_value = 0.501

[[record]]
molecule = "CC(C)N(C)[C@@H]1CC[C@H](N2CC[C@H](Nc3ncnc4ccc(C(F)(F)F)cc34)C2=O)[C@H](NC(=O)[C@H]2CC[C@H](c3ccc(C(=O)NCCOCCOCCNC(=O)[C@H]4CC(=O)N(C)[C@@H]4c4cccnc4)cc3)CC2)C1 [Example 140]"
u = "nM"
meas_value = 0.398

[[record]]
molecule = "CC(C)N(C)[C@@H]1CC[C@H](N2CC[C@H](Nc3ncnc4ccc(C(F)(F)F)cc34)C2=O)[C@H](NC(=O)C2CC=C(c3ccc(OCCCCCCNC(=O)[C@H]4CC(=O)N(C)[C@@H]4c4cccnc4)cc3)CC2)C1 (stereo partly shown) [Example 158]"
u = "nM"
meas_value = 0.501

[[record]]
molecule = "CC(C)N(C)[C@@H]1CC[C@H](N2CC[C@H](Nc3ncnc4ccc(C(F)(F)F)cc34)C2=O)[C@H](NC(=O)[C@H]2CC[C@H](NC(=O)CCCOC[C@H]3CC[C@@H](COCCNC(=O)[C@H]4CC(=O)N(C)[C@@H]4c4cccnc4)CC3)CC2)C1 [Example 57]"
u = "nM"
meas_value = 1.58

[[record]]
molecule = "CC(C)N(C)[C@@H]1CC[C@H](N2CC[C@H](Nc3ncnc4ccc(C(F)(F)F)cc34)C2=O)[C@H](NC(=O)C[C@H]2CC[C@H](NC(=O)CCOCCOCCOCCNC(=O)[C@H]3CC(=O)N(C)[C@@H]3c3cccnc3)CC2)C1 [Example 33]"
u = "nM"
meas_value = 0.316

[[record]]
molecule = "CC(C)N(C)[C@@H]1CC[C@H](N2CC[C@H](Nc3ncnc4ccc(C(F)(F)F)cc34)C2=O)[C@H](NC(=O)CCOCCOCCOCCNc2c(NCCCNC(=O)[C@H]3CC(=O)N(C)[C@@H]3c3cccnc3)c(=O)c2=O)C1 [Example 169]"
u = "nM"
meas_value = 0.251

[[record]]
molecule = "CC(C)N(C)[C@@H]1CC[C@H](N2CC[C@H](Nc3ncnc4ccc(C(F)(F)F)cc34)C2=O)[C@H](NC(=O)[C@H]2CC[C@H](N3CCN(S(=O)(=O)C4CCN(C(=O)[C@H](C)NC(=O)[C@H]5CC(=O)N(C)[C@@H]5c5cccnc5)CC4)CC3)CC2)C1 [Example 70]"
u = "nM"
meas_value = 0.1

[[record]]
molecule = "CC(C)N(C)[C@@H]1CC[C@H](N2CC[C@H](Nc3ncnc4ccc(C(F)(F)F)cc34)C2=O)[C@H](NC(=O)c2ccnc(NCCOCCOCCOCCOCCNC(=O)[C@H]3CC(=O)N(C)[C@@H]3c3cccnc3)c2)C1 [Example 126]"
u = "nM"
meas_value = 2.51

[[record]]
molecule = "CC(C)N(C)[C@@H]1CC[C@H](N2CC[C@H](Nc3ncnc4ccc(C(F)(F)F)cc34)C2=O)[C@H](NC(=O)CCOCCOCCNC(=O)CCOCCOCCNC(=O)[C@H]2CC(=O)N(C)[C@@H]2c2cccnc2)C1 [Example 76]"
u = "nM"
meas_value = 1.26

[[record]]
molecule = "CC(C)N(C)[C@@H]1CC[C@H](N2CC[C@H](Nc3ncnc4ccc(C(F)(F)F)cc34)C2=O)[C@H](NC(=O)CCCCOCCCCCCCCOCCCCNC(=O)[C@H]2CC(=O)N(C)[C@@H]2c2cccnc2)C1 [Example 161]"
u = "nM"
meas_value = 0.794

[[record]]
molecule = "CC(C)N(C)[C@@H]1CC[C@H](N2CC[C@H](Nc3ncnc4ccc(C(F)(F)F)cc34)C2=O)[C@H](NC(=O)COCCOCCNC(=O)CCOCCOCCNC(=O)[C@H]2CC(=O)N(C)[C@@H]2c2cccnc2)C1 [Example 77]"
u = "nM"
meas_value = 6.31

[[record]]
molecule = "CC(C)N(C)[C@@H]1CC[C@H](N2CC[C@H](Nc3ncnc4ccc(C(F)(F)F)cc34)C2=O)[C@H](NC(=O)[C@H]2CC[C@H](N3CCN(C(=O)CCCCCCCCNC(=O)[C@H]4CC(=O)N(C)[C@@H]4c4cccnc4)CC3)CC2)C1 [Example 155]"
u = "nM"
meas_value = 0.251

[[record]]
molecule = "CC(C)N(C)[C@@H]1CC[C@H](N2CC[C@H](Nc3ncnc4ccc(C(F)(F)F)cc34)C2=O)[C@H](NC(=O)[C@H]2CC[C@H](C(=O)NCCCOCCCCOCCCNC(=O)[C@H]3CC(=O)N(C)[C@@H]3c3cccnc3)CC2)C1 [Example 194]"
u = "nM"
meas_value = 0.631

[[record]]
molecule = "CC(C)N(C)[C@@H]1CC[C@H](N2CC[C@H](Nc3ncnc4ccc(C(F)(F)F)cc34)C2=O)[C@H](NC(=O)COCCNC(=O)CCOCCNC(=O)CCOCCNC(=O)[C@H]2CC(=O)N(C)[C@@H]2c2cccnc2)C1 [Example 47]"
u = "nM"
meas_value = 0.316

